I'd be grateful if you could share measured composite z-score for these entries.
system: Plasmodium falciparum Sir2 (PF13_0152, Sir2A); assay: pfSir2 binders on small-molecule microarrays, primary screen, biochemical, small-molecule microarray, 635 nm fluorescence (AID 1098); conditions: small-molecule microarray binding, fluorescence 635 nm; higher = more signal;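 further: score merges spot fluorescence intensity with its signal-to-noise ratio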

Entry COc1ccc(COC(=O)NN=C2C[C@@H](O)[C@@H](O)[C@@H]3[C@@H]4C(=O)N(Cc5ccc6c(c5)OCO6)C(=O)[C@@H]4CC[C@H]23)cc1 , composite z-score reported as -0.218

composite z-score recorded for this compound, CCOC(=O)[C@H](Cc1ccccc1)NC(=O)CCC1CC(OC(=O)NCc2ccc3c(c2)OCO3)CC2(CCCC(COC(=O)NCCCN3CCCC3=O)O2)O1 (stereo partly specified) , is 0.465

composite z-score reading for CC(C)CON=C1C[C@@H](O)[C@@H](O)[C@@H]2[C@@H]3C(=O)N(Cc4ccc5c(c4)OCO5)C(=O)[C@@H]3CC[C@@H]12 : 0.409

// recorded composite z-score for CCN1C(=O)[C@H]2[C@H]3[C@H](O)[C@H](O)CC(=NO[C@H](C)c4cn([C@@H]5COC[C@H]5O)nn4)[C@@H]3CC[C@H]2C1=O : -0.428

Record CC(=O)OC[C@H]1O[C@H](CC=NO[C@@H](C)c2cn([C@H](CO)Cc3ccccc3)nn2)C=C[C@@H]1OC(C)=O . Reported composite z-score: 0.775

CO[C@@H]1COC(=O)[C@H](CCSC)NC(=O)CC=C[C@@H](C)COC(=O)[C@@H]2CCCN2C(=O)CC=C[C@H]1C has a reported composite z-score of 0.275

Field composite z-score (entry O=C1C2=CC[C@H]3C(=O)N(c4ccc(F)cc4F)C(=O)[C@H]3[C@H]2[C@H](O)[C@@H]2O[C@H]12 ) reads 0.305

The compound listed as COCOc1ccc(Br)cc1C(=O)C=Cc1ccc2c(c1)OCO2 has a reported composite z-score of -0.0162

# compound CCO[C@H](c1cc(OC)cc([N+](=O)[O-])c1OC)[C@H](C)[C@@H](OC)[C@H](C)C=CCC(=O)OC ; its composite z-score = 0.535

Looking up C[C@@H]1CC[C@@H](C(=O)O)N[C@H]1c1cccc(N2CCOCC2)c1 , I found its composite z-score recorded as 0.168

composite z-score in this record for CC(C)=NOC[C@@H](O)[C@H]1O[C@@H]2OC(C)(C)O[C@@H]2[C@H]1O : 0.231

Noted for O=C1C=C[C@@H](O)[C@@H]2[C@@H]3C(=O)N(Cc4ccc5c(c4)OCO5)C(=O)[C@@H]3CC[C@@H]12 : its composite z-score reads 0.382

composite z-score for CC(C)(C)N1C(=O)[C@H]2[C@H]3[C@H](O)[C@H](O)CC(=NOC[C@@H](O)COCc4ccco4)[C@@H]3CC[C@H]2C1=O is 0.34

COC(=O)CC=C[C@@H](C)[C@@H](C=NOC[C@@H](O)COCc1ccco1)NS(=O)(=O)c1ccc(C)cc1 has a reported composite z-score of 0.406

Consider C#CCCCON=C1C[C@@H](O)[C@@H](O)[C@@H]2[C@@H]3C(=O)N([C@@H](C)c4ccccc4)C(=O)[C@@H]3CC[C@@H]12 . Its measured composite z-score is 0.563

What the record says about CC(CCN1CCCc2nc(C)c(C)cc21)=NOC[C@@H](C)[C@H](OCc1ccccc1)C(C)C : composite z-score is -0.438

So for CC(CCN1CCCc2nc(C)c(C)cc21)=NO[C@@H](C)c1cn([C@H](CO)Cc2ccccc2)nn1 , the logged composite z-score turned out to be 0.531

Entry under test: O=C1[C@H]2[C@H]3[C@H](O)[C@H](O)CC(=NOC[C@@H](O)COCc4ccco4)[C@@H]3CC[C@H]2C(=O)N1c1cccc(Oc2ccccc2)c1 . Its composite z-score was -0.042

Entry COC(=O)CC=C[C@@H](C)[C@@H](C=NOC[C@@H](C)[C@H](OCc1ccccc1)C(C)C)NS(=O)(=O)c1ccc(C)cc1 ; composite z-score = -0.196

Looking up CC(=O)OC[C@H]1O[C@@H](ON=C(C)C)[C@H](OC(C)=O)[C@@H](OC(C)=O)[C@@H]1OC(C)=O , I found its composite z-score recorded as -0.745

Value of composite z-score reported for the compound CCOC(=O)[C@H](CC(C)C)NC(=O)CCC1CC(OC(=O)NCc2ccc3c(c2)OCO3)CC2(CCCC(COC(=O)NCCC(C)C)O2)O1 (stereo partly specified) is 0.0402

The compound CC(CCN1CCc2nc(-c3ccccc3)c(-c3ccccc3)cc2C1)=NO[C@H](C)c1cn([C@H](CO)Cc2ccccc2)nn1 showed composite z-score equal to 0.343

# composite z-score (compound: OC[C@H]1O[C@H](C#Cc2ccccc2)C=C[C@@H]1O ) is 0.721

Lab note: CCOC(=O)[C@H](Cc1ccccc1)NC(=O)CCC1CC(OC(=O)NCc2cccc3ccccc23)CC2(CCCC(COC(=O)NCCc3ccc(Cl)cc3)O2)O1 (stereo partly specified) gave composite z-score of 0.519

// field: composite z-score; key: CO[C@H]1COC(=O)[C@H](CCSC)NC(=O)CC=C[C@@H](C)[C@H](OC)COC(=O)[C@@H](OCc2ccccc2)C=C[C@@H]1C ; value = 0.988

Entry under test: CON=C[C@@H](OC)[C@H](C)C=CCC(=O)OC . Its composite z-score was -0.387

The reported value for O=C1C[C@@H](O)[C@@H](O)[C@@H]2[C@@H]3C(=O)N(c4ccc(F)cc4F)C(=O)[C@@H]3CC[C@H]12 in terms of composite z-score is 0.88

Value of composite z-score reported for the compound CC(C)=NOC(C)CN1CCCc2nc(C)c(C)cc21 (stereo unspecified) is 1.19

Record CO[C@H]1COC(=O)[C@H](C)COC(=O)[C@@H](OCc2ccccc2)C=C[C@@H]1C . Reported composite z-score: -0.0072

Record summary for COC(=O)[C@H](C)NC(=O)CCC1CC(OC(=O)NCCc2ccc(F)cc2)CC2(CCCC(COC(=O)NCCc3ccccc3OC)O2)O1 (stereo partly specified) : reported composite z-score = 0.557

// composite z-score lookup, compound = C[C@H]1CC[C@H]2C(=O)N[C@H](Cc3ccccc3)C(=O)N2[C@@H]1c1ccccc1 , result: -0.427

###

test: S. cerevisiae RM11-1a growth modifiers, primary screen, strain RM11-1a, OD600, basal, 24 h (AID 1177); conditions: OD600, 24 h, higher = more signal, called active from +8 up or from −8 down;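 further: cultures grown under basal conditions with no added stressor; test concentration not given here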
endpoint.name: z-score
Write the value as a bare number.

// COC(=O)CC=C[C@@H](C)[C@@H](C=NOC(C)CN1CCCCc2nc(C)c(C)cc21)OC (some centres undefined) : z-score value = -0.46

So, CC(=O)OC[C@H]1O[C@H](CC=NOC(C)CN2CCCCc3nc(C)c(C)cc32)C=C[C@@H]1OC(C)=O (some centres undefined) ? Its z-score was 0.575

Entry CC(CCN1CCCCc2nc(C)c(C)cc21)=NO[C@@H](C)c1cc(-c2c(C)cc(C)cc2C)no1 — recorded z-score = -0.62

// z-score value for CCOC(=O)[C@H](Cc1ccccc1)NC(=O)CCC1CC(OC(=O)NCc2ccc3c(c2)OCO3)CC2(CCCC(COC(=O)NCCOc3ccccc3)O2)O1 (some centres undefined) : 0.0995

###

test system: Sam68 (KHDRBS1); test: Sam68 small-molecule binders, primary screen, biochemical, small-molecule microarray, 635 nm fluorescence (AID 1125); conditions: small-molecule microarray binding, higher = more signal;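 further: score merges 667 nm channel intensity with signal to noise over triplicate slides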
Classify as follows. Reported composite z-score greater than or equal to 0.5: Yes. Reported composite z-score below: No.

Ask: // inclusive: composite z-score at least 0.5? input: COc1ccc(COC(=O)NN=C2C[C@@H](O)[C@@H](O)[C@@H]3[C@@H]4C(=O)N(Cc5ccc6c(c5)OCO6)C(=O)[C@@H]4CC[C@H]23)cc1
Reply: No

Ask: Decide: composite z-score of CCN1C(=O)[C@H]2[C@H]3[C@H](O)[C@H](O)CC(=NOC(C)CN4CCCc5nc(C)c(C)cc54)[C@@H]3CC[C@H]2C1=O (some centres not stated) >= 0.5?
Reply: Yes

Ask: Would you say O=C1[C@H]2[C@H]3[C@H](O)[C@H](O)CC(=NOC[C@@H](O)COCc4ccco4)[C@@H]3CC[C@H]2C(=O)N1Cc1ccccc1 shows composite z-score at minimum 0.5?
Reply: Yes

Ask: Kindly determine if composite z-score recorded for CC(CCC(=O)OC[C@H]1O[C@H](C#Cc2ccccc2)C=C[C@@H]1Oc1ccc(C)cc1)=NOC(C)CN1CCCCc2nc(C)c(C)cc21 (some centres not stated) is above or exactly 0.5.
Reply: No

Ask: Dear colleague, could you confirm whether CC(CCN1CCc2nc(-c3ccccc3)c(-c3ccccc3)cc2C1)=NO[C@@H](C)c1cc(-c2c(C)cc(C)cc2C)no1 has composite z-score at or above 0.5?
Reply: No

Ask: Please tell me: is the compound CC(C)C(=O)N[C@H]1CCCN1C(=O)C=Cc1ccccc1 at or over 0.5 in terms of composite z-score?
Reply: Yes
